Could you please report measured pIC50 for the items listed next?
# TARGET: HDAC1 (Homo sapiens (Human), UniProt Q13547)
# Sequence (Q13547 whole entry): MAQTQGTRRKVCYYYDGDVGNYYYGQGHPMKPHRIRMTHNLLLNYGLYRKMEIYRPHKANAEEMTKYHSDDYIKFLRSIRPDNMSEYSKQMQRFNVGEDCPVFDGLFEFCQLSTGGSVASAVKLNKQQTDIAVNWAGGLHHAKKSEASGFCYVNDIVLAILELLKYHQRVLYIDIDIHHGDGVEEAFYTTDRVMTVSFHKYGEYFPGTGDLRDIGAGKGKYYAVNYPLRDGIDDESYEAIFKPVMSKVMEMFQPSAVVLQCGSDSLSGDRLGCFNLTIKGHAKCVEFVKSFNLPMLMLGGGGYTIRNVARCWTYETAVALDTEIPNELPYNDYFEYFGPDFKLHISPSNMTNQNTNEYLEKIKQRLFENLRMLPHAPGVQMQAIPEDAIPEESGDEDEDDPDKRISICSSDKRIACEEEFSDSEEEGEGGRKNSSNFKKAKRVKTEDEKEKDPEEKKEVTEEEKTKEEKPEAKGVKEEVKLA
# TEST_SUMMARY: HDAC in vitro enzymatic assay (fluorescence)
# APPLIED_CONDITIONS: read-out: IC50 HDAC1; selectivity profiling; top concentration 200 μM
Give bare numbers, as −log10 of the molar value.

Some solved cases for reference:
O=C(NO)c1ccc2nc(-c3ccc4c(c3)CCO4)[nH]c2c1 [Example 96]: 5.30
O=C(NO)c1ccc2nc(-c3cccc(Br)c3)[nH]c2c1 [Example 21]: 5.82
COc1c(C)cc(-c2nc3cc(C(=O)NO)ccc3n2C)cc1C [Example 228]: 5.70
CCc1ccc(-c2nc3ccc(C(=O)NO)cc3[nH]2)cc1 [Example 109]: 5.19

Reported pIC50 of CCCCc1ccc(-c2nc3ccc(C(=O)NO)cc3[nH]2)cc1 [Example 162] : 5.11
